Examples of compounds with documented pEC50 follow.
# TESTED_ON: CB-1 receptor (Human Cannabinoid receptor 1) (Homo sapiens (Human))
# Sequence (P21554 whole entry): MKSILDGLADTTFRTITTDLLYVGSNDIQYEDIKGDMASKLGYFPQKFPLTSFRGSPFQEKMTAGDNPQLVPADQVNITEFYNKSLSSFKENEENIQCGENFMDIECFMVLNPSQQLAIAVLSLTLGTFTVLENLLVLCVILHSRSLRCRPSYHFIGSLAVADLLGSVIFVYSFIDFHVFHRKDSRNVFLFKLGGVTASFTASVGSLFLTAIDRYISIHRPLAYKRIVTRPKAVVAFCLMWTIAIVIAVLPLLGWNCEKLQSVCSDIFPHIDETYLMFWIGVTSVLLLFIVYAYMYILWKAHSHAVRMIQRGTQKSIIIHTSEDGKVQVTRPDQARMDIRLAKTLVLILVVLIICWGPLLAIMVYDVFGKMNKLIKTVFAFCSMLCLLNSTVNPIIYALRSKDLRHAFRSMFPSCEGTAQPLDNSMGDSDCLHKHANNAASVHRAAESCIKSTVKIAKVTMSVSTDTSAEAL
# EXPERIMENT_DESCRIPTION: cAMP HTRF assay, CB-1 inverse agonism in stably transfected HEK-293 cells
# CONDITION_INFO: 250 nM Forskolin, mean where tested more than once, read-out: CB1 EC50
Recall that pEC50 is obtained by taking minus log10 of the concentration measured in molar.

Please review the entries below; each comes with its answer.
{"COMPOUND": "NNC(=O)CCOCCOCCOCCOCCOCCOCCOCCOCCOCCOCCOCCOCCNC(=O)OCCOCCOCCOc1cc(NC2CCN(S(=O)(=O)C(F)(F)F)CC2)c2cc(C(c3ccc(Cl)cc3)c3ccc(Cl)cc3)ccc2n1", "pEC50": 7.03}
{"COMPOUND": "O=S(=O)(N1CCC(Nc2cc(OCCOCCOCCOCCOCCOCCO)nc3ccc(C(c4ccc(Cl)cc4)c4ccc(Cl)cc4)cc23)CC1)C(F)(F)F", "pEC50": 6.82}
{"COMPOUND": "O=S(=O)(N1CCC(Nc2cc(OCCOCCOCCO)nc3ccc(C(c4ccc(Cl)cc4)c4ccc(Cl)cc4)cc23)CC1)C(F)(F)F", "pEC50": 7.28}

Query compound follows.
# `COCCOCCOc1ccc(Nc2cc(=O)[nH]c3ccc(C(c4ccc(Cl)cc4)c4ccc(Cl)cc4)cc23)cc1` with CB-1 receptor (Human Cannabinoid receptor 1) (Homo sapiens (Human)): pEC50 is 7.33

----------
# TESTED_ON: CB-2 receptor (Human CB2R, Cannabinoid receptor 2) (Homo sapiens (Human))
# Sequence (P34972 whole entry): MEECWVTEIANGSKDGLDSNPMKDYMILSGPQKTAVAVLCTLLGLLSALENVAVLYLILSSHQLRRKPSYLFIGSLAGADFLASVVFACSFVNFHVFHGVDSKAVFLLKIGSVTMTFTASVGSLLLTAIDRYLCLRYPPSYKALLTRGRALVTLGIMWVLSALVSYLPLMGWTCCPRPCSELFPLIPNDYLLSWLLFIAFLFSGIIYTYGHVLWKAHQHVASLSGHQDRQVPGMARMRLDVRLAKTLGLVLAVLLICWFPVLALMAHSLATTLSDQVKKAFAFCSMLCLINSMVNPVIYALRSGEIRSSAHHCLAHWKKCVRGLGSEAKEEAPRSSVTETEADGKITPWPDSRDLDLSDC
# EXPERIMENT_DESCRIPTION: cAMP HTRF assay, CB-2 in stably transfected HEK-293 cells
# CONDITION_INFO: 250 nM Forskolin, mean where tested more than once, read-out: CB2 EC50
Examples of molecules with documented EC50 follow.

Please review the entries below; each comes with its answer.
{"COMPOUND": "O=S(=O)(N1CCC(Nc2cc(OCCOCCOCCOCCOCCOCCO)nc3ccc(C(c4ccc(Cl)cc4)c4ccc(Cl)cc4)cc23)CC1)C(F)(F)F", "OBSERVED": "> 10 µM"}
{"COMPOUND": "COCCOCCOCCOCCOCCOCCOCCOCCOCCOCCOCCOCCNC(=O)CCCCCOc1cc(NC2CCN(S(=O)(=O)C(F)(F)F)CC2)c2cc(C(c3ccc(Cl)cc3)c3ccc(Cl)cc3)ccc2n1", "OBSERVED": "3 µM"}
{"COMPOUND": "O=C(O)CCOCCOCCOCCOCCOCCOCCOCCOCCOCCOCCOCCOCCOc1cc(C(c2ccc(Cl)cc2)c2ccc(Cl)cc2)cc2c(NC3CCN(S(=O)(=O)C(F)(F)F)CC3)ccnc12", "OBSERVED": "0.74 µM"}
{"COMPOUND": "COCCOCCOCCOCCn1c(=O)cc(NC2CCN(S(=O)(=O)C(F)(F)F)CC2)c2cc(C(c3ccc(Cl)cc3)c3ccc(Cl)cc3)ccc21", "OBSERVED": "> 10 µM"}
{"COMPOUND": "COCCOCCOc1ccc(Nc2cc(=O)[nH]c3ccc(C(c4ccc(Cl)cc4)c4ccc(Cl)cc4)cc23)cc1", "OBSERVED": "3.3 µM"}

Query molecule follows.
Value of EC50 reported for the molecule `O=S(=O)(N1CCC(Nc2cc(OCCOCCOCCOCCOCCOCCOc3ccc(CO)cc3)nc3ccc(C(c4ccc(Cl)cc4)c4ccc(Cl)cc4)cc23)CC1)C(F)(F)F` is 3.11 µM
